- Tgt: CKIP-1 (casein kinase 2 interacting protein-1) (Homo sapiens)
- Construct: gene PLEKHO1; GST-CKIP-1-C1 (C-terminal leucine zipper region, 345–409)
- Sequence (Q53GL0 345-409): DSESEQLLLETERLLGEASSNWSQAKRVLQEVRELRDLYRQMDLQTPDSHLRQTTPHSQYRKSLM
- Test method notes: SPR (Biacore T200, GST-CKIP-1-C1 captured on CM5 via anti-GST); supported by CETSA in HEK293T cells with Flag-CKIP-1
- Type: binding
Readout kind: Kd
Note to self: number, then unit, no commentary.

Give the value of Kd reported for the following: CNC(=O)c1c(F)ccc(NS(=O)(=O)c2ccc(OC)nc2)c1-c1cc(C(F)(F)F)cc(C(F)(F)F)c1 [C77] 27.1 nM

---

- Tgt: CKIP-1 (casein kinase 2 interacting protein-1) (Homo sapiens)
- Construct: gene PLEKHO1; GST-CKIP-1-C1 (C-terminal leucine zipper region, 345–409)
- Test method notes: SPR (Biacore T200, GST-CKIP-1-C1 captured on CM5 via anti-GST)
- Format: binding
Readout kind: Kd

Give Kd for CNC(=O)C1(NC(=O)/C=C/c2cc(I)cc(OC)c2O)CC1 2.17 µM

Data origin: paper PMC11354310
